TARGET OR SYSTEM: ATP-dependent translocase ABCB1 (Homo sapiens, UniProt P08183)
Sequence (P08183 whole entry): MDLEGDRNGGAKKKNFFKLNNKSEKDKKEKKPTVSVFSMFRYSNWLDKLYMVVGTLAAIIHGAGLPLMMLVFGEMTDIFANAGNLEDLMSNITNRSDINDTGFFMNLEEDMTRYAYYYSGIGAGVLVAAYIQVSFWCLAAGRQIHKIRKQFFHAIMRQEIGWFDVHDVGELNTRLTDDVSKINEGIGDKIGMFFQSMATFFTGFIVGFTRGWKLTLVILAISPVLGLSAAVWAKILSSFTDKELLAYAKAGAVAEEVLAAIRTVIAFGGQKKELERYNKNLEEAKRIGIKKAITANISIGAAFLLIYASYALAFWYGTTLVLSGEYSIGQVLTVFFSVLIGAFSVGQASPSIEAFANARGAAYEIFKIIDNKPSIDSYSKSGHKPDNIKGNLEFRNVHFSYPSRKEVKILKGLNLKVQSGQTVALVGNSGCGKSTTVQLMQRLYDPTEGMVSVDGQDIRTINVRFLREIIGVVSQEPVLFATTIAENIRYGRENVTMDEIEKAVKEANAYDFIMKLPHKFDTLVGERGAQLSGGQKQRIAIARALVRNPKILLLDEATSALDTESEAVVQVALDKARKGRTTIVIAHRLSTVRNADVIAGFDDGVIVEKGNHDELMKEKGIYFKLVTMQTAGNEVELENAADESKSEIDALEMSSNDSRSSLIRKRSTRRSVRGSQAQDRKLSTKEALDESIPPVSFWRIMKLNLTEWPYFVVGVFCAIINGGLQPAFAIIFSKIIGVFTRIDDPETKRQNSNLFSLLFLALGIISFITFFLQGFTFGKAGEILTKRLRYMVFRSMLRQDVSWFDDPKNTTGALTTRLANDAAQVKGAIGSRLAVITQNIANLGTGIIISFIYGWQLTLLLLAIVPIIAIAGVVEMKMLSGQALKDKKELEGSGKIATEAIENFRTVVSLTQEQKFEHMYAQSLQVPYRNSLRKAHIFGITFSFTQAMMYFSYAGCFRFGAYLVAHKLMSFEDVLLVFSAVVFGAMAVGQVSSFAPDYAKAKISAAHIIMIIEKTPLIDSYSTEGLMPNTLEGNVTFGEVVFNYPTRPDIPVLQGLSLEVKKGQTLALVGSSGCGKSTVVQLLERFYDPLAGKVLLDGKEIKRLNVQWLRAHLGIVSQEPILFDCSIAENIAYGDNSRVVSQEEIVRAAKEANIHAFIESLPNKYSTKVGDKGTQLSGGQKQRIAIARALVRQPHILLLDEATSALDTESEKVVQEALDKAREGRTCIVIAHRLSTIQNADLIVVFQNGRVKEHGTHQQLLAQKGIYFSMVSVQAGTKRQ
ASSAY TEXT: Inhibition of MDR-1 in human Caco-2 cells after 30 mins by calcein-AM dye based fluorescence assay
READOUT TYPE: IC50 (nM)

For orientation, consider the following solved cases.
| MOLECULE | IC50 / nM |
| --- | --- |
| CCOC(=O)C1=C(C)NC(C)=C(C(=O)OCc2cn(CCc3ccccc3)nn2)C1c1c(-c2ccc(Br)cc2)noc1C (stereo unspecified) | 1640 |
| CCOC(=O)C1=C(C)NC(C)=C(C(=O)OCc2cn(CCOCCOCCOCCOCCOCCn3cc(COC(=O)C4=C(C)NC(C)=C(C(=O)OCC)C4c4c(-c5cccc(Br)c5)noc4C)nn3)nn2)C1c1c(-c2cccc(Br)c2)noc1C (stereo unspecified) | 1300 |

(I) CCOC(=O)C1=C(C)NC(C)=C(C(=O)OCC)C1c1c(-c2ccc(Br)cc2)noc1C
(II) CCOC(=O)C1=C(C)NC(C)=C(C(=O)OCC)C1c1c(-c2cccc(Br)c2)noc1C
(III) CCOC(=O)C1=C(C)NC(C)=C(C(=O)OCc2cn(CCOCCOCCn3cc(COC(=O)C4=C(C)NC(C)=C(C(=O)OCC)C4c4c(-c5ccc(Br)cc5)noc4C)nn3)nn2)C1c1c(-c2ccc(Br)cc2)noc1C (stereo unspecified)
Highest IC50 first, then in falling order down to the smallest. Reply: labels, ordered per the request.
I, III, II

(a) CCOC(=O)C1=C(C)NC(C)=C(C(=O)OCc2cn(CCOCCOCCOCCn3cc(COC(=O)C4=C(C)NC(C)=C(C(=O)OCC)C4c4c(-c5ccc(Br)cc5)noc4C)nn3)nn2)C1c1c(-c2ccc(Br)cc2)noc1C (stereo unspecified)
(b) CCOC(=O)C1=C(C)NC(C)=C(C(=O)OCc2cn(CCOCCOCCOCCOCCOCCn3cc(COC(=O)C4=C(C)NC(C)=C(C(=O)OCC)C4c4c(-c5ccc(Br)cc5)noc4C)nn3)nn2)C1c1c(-c2ccc(Br)cc2)noc1C (stereo unspecified)
Hi, I'm comparing a with b and wondering which one has the bigger number for IC50. Any idea? Bench note: the answer is the label of the chosen record.
a
